Every entry's value here was drawn from the supplement of paper PMC11451515.

cell viability overview
Test system: NOMO1
Assay: cell viability relative to DMSO control; higher = less cytotoxic
Settings: RPMI 5 mM glucose + 10% FBS; 48 h; 0.0211 µM
Measured Attribute: cell viability (%)

Structure Notation: COc1cc(N2CCC(C(N)=O)CC2)ccc1Nc1nc(N)c(Cl)c(Nc2ccccc2[S+](=O)([O-])C(C)C)n1
Data Value: 89.9
//
Structure Notation: CN1C(=O)\C(=C/C(=C1/NC2=C(F)C=C(I)C=C2)C(=O)NOCCO)C
Data Value: 72
//
Structure Notation: O=C1c2c(O)cccc2[C@H]([C@@H]2O[C@H](CO)[C@@H](O)[C@H](O)[C@H]2O)c2cc(CO)cc(O)c21
Data Value: 80.8
//
Structure Notation: COC1=CC=C2Nc3cc(Cl)ccc3C(N=C3C=C(CN4CCCC4)C(=O)C(CN4CCCC4)=C3)=C2N1
Data Value: 110
//
Structure Notation: C[C@]\1(CCS\C(=N1)N)C2=CC(=C(F)C=C2F)C3=CN=CN=C3
Data Value: 100
//
Structure Notation: CC(C)(C)/[N+]([O-])=C/c1ccc([S+](=O)([O-])[O][Na])cc1[S+](=O)([O-])[O][Na]
Data Value: 126
//
Structure Notation: CC[C@H]1OC(=O)[C@H](C)[C@@H](O[C@H]2C[C@@](C)(OC)[C@@H](O)[C@H](C)O2)[C@H](C)[C@@H](O[C@@H]2O[C@@H](C)C[C@H](N(C)C)[C@H]2O)[C@](C)(O)C[C@@H](C)C(=O)[C@H](C)[C@@H](O)[C@]1(C)O
Data Value: 94.9
//
Structure Notation: COc1ccc(Cc2nccc3cc(OC)c(OC)cc23)cc1OC
Data Value: 117
